Examples of compounds with documented Population Normal (%) follow.
test system: U2OS; assay: Multiplex assay against U2OS; format: toxicity, cell-based; settings: human, 24 h, 1 µM, compound concentration 1 uM, replicate 2
Quantity name: Population Normal (%)

[[record]]
compound = "CCC(=O)OCC(=O)[C@@]1(OC(=O)CC)[C@@H](C)C[C@H]2[C@@H]3CCC4=CC(=O)C=C[C@]4(C)[C@@]3(Cl)[C@@H](O)C[C@@]21C [BECLOMETHASONE DIPROPIONATE]"
unit_annotation = "%"
measurement = 99

[[record]]
compound = "O=C(Nc1cc(-c2ccccc2)nn1-c1ccccc1F)c1ccc([N+](=O)[O-])cc1"
unit_annotation = "%"
measurement = 98

[[record]]
compound = "CN(C)C/C=C/C(=O)Nc1ccc(C(=O)N2CCCC(Nc3ncc(Cl)c(-c4c[nH]c5ccccc45)n3)C2)cc1 (configuration not stated)"
unit_annotation = "%"
measurement = 99

[[record]]
compound = "COc1cc(Nc2ncc3c(n2)-c2ccc(Cl)cc2C(c2c(F)cccc2OC)=NC3)ccc1C(=O)O [ALISERTIB]"
unit_annotation = "%"
measurement = 97

[[record]]
compound = "O=C(NCCNCC(O)COc1ccc(O)cc1)N1CCOCC1.O=C(NCCNCC(O)COc1ccc(O)cc1)N1CCOCC1.O=C(O)/C=C/C(=O)O (configuration not stated) [XAMOTEROL FUMARATE]"
unit_annotation = "%"
measurement = 98

[[record]]
compound = "Cc1cc(-c2ccc3c(c2)CC[C@H]3N2CC3(CCN(C(=O)Cc4cn5cc(C)sc5n4)CC3)C2)ncn1 [PF-5190457]"
unit_annotation = "%"
measurement = 99

[[record]]
compound = "Nc1nc(CC(=O)Nc2ccc(CCNC[C@H](O)c3ccccc3)cc2)cs1 [MIRABEGRON]"
unit_annotation = "%"
measurement = 99

[[record]]
compound = "Cc1sc2c(c1C)C(c1ccc(Cl)cc1)=N[C@H](CC(=O)OC(C)(C)C)c1nnc(C)n1-2"
unit_annotation = "%"
measurement = 96

[[record]]
compound = "Cn1cc(C(=O)OCC2CCN(CCNS(C)(=O)=O)CC2)c2ccccc21"
unit_annotation = "%"
measurement = 100

[[record]]
compound = "CCc1nn2c(C)cc(C)nc2c1Cc1ccc(-c2nnc(C3CCNCC3)o2)cc1"
unit_annotation = "%"
measurement = 96

[[record]]
compound = "CC(C)(C)c1ccc(CSc2cnn(C(C)(C)C)c(=O)c2Cl)cc1 [PYRIDABEN]"
unit_annotation = "%"
measurement = 97

[[record]]
compound = "CN1C[C@H](C(=O)N[C@]2(C)O[C@@]3(O)[C@@H]4CCCN4C(=O)[C@H](Cc4ccccc4)N3C2=O)C[C@@H]2c3cccc4[nH]cc(c34)C[C@H]21.CS(=O)(=O)O [DIHYDROERGOTAMINE MESYLATE]"
unit_annotation = "%"
measurement = 98

[[record]]
compound = "Cc1cc(O)c(-c2ccc([C@@H](C)CN(C)C)cc2)c2c1[nH]c(=O)c1sccc12"
unit_annotation = "%"
measurement = 93

[[record]]
compound = "Nc1nc(-c2ccco2)c2cnn(Cc3ccccc3F)c2n1"
unit_annotation = "%"
measurement = 95

[[record]]
compound = "O=c1nc2[nH]c3ccccc3nc-2c(=O)[nH]1 [ALLOXAZINE]"
unit_annotation = "%"
measurement = 97

[[record]]
compound = "N[C@](CC1c2ccccc2Oc2ccccc21)(C(=O)O)[C@H]1C[C@@H]1C(=O)O"
unit_annotation = "%"
measurement = 99

[[record]]
compound = "Cl.Cl.OCCOCCN1CCN(C(c2ccccc2)c2ccc(Cl)cc2)CC1 (configuration not stated) [HYDROXYZINE HYDROCHLORIDE]"
unit_annotation = "%"
measurement = 97

[[record]]
compound = "CN1CCN2c3ccccc3Cc3ccccc3C2C1.Cl (configuration not stated) [MIANSERIN HYDROCHLORIDE]"
unit_annotation = "%"
measurement = 97

[[record]]
compound = "CC(C)C[C@H](CO)Nc1nc(S[C@@H](C)c2ccccc2)nc2nc(N)sc12 [AZD-8797]"
unit_annotation = "%"
measurement = 100

[[record]]
compound = "CN1CCC(C(=O)c2cccc(NC(=O)c3c(F)cc(F)cc3F)n2)CC1"
unit_annotation = "%"
measurement = 99

[[record]]
compound = "Cc1nn(C)c2nc(NNC(=O)Nc3cc(Cl)nc(Cl)c3)cc(C(C)C)c12"
unit_annotation = "%"
measurement = 97

[[record]]
compound = "CCCCC[C@H](O)/C=C/[C@H]1[C@H](O)CC(=O)[C@@H]1CCCCCCC(=O)O [ALPROSTADIL]"
unit_annotation = "%"
measurement = 99


---

tested on: HEK-293T; assay: Multiplex assay against HEK293T; format: toxicity, cell-based; details: human, 12 h, 10 µM, compound concentration 10 uM, replicate 2
Examples of compounds with documented Population Mitotic Cells (%) follow.
Quantity name: Population Mitotic Cells (%)

[[record]]
compound = "Cc1cc(=O)n(C)c2cc(N3C(=O)CC[C@H](NS(=O)(=O)CC(C)C)[C@H]3c3ccc(Cl)cc3)ccc12"
target_of_assay = "HEK-293T"
measurement = "49%"

[[record]]
compound = "C=CCN1C[C@H](C(=O)N(CCCN(C)C)C(=O)NCC)C[C@@H]2c3cccc4[nH]cc(c34)C[C@H]21 [CABERGOLINE]"
target_of_assay = "HEK-293T"
measurement = "40%"

[[record]]
compound = "O=C(O)CCC/C=C\\CC1C(O)CC(O)C1/C=C/C(O)COc1cccc(Cl)c1 (centres undefined) [CLOPROSTENOL]"
target_of_assay = "HEK-293T"
measurement = "48%"

[[record]]
compound = "CN1CCN2c3ccccc3Cc3ccccc3C2C1.Cl (centres undefined) [MIANSERIN HYDROCHLORIDE]"
target_of_assay = "HEK-293T"
measurement = "57%"


---

tested on: HEK-293T; assay: Multiplex assay against HEK293T; assay type: toxicity, cell-based; settings: human, 12 h, 1 µM, compound concentration 1 uM, replicate 2
Examples of compounds with documented Population Pyknosed Nuclei (%) follow.
Quantity name: Population Pyknosed Nuclei (%)

[[record]]
compound = "Nc1nc(CC(=O)Nc2ccc(CCNC[C@H](O)c3ccccc3)cc2)cs1"
quantity_name = "Population Pyknosed Nuclei (%)"
measurement = "11%"

[[record]]
compound = "CN1CCC(C(=O)c2cccc(NC(=O)c3c(F)cc(F)cc3F)n2)CC1"
quantity_name = "Population Pyknosed Nuclei (%)"
measurement = "12%"

[[record]]
compound = "Cc1cc(O)c(-c2ccc([C@@H](C)CN(C)C)cc2)c2c1[nH]c(=O)c1sccc12"
quantity_name = "Population Pyknosed Nuclei (%)"
measurement = "25%"

[[record]]
compound = "CN1C[C@H](C(=O)N[C@]2(C)O[C@@]3(O)[C@@H]4CCCN4C(=O)[C@H](Cc4ccccc4)N3C2=O)C[C@@H]2c3cccc4[nH]cc(c34)C[C@H]21.CS(=O)(=O)O [DIHYDROERGOTAMINE MESYLATE]"
quantity_name = "Population Pyknosed Nuclei (%)"
measurement = "14%"

[[record]]
compound = "Cc1nn(C)c2nc(NNC(=O)Nc3cc(Cl)nc(Cl)c3)cc(C(C)C)c12"
quantity_name = "Population Pyknosed Nuclei (%)"
measurement = "13%"

[[record]]
compound = "COc1cc(C(=O)N2CC[C@@H](O)[C@@H](N)C2)cc2nc(-c3cc4ccccc4n3CC3CC3)n(C)c12.Cl"
quantity_name = "Population Pyknosed Nuclei (%)"
measurement = "20%"

[[record]]
compound = "COc1c(Nc2ccc(S(C)(=O)=O)nc2C)ncnc1OC1CCN(C(=O)OC(C)C)CC1"
quantity_name = "Population Pyknosed Nuclei (%)"
measurement = "14%"

[[record]]
compound = "CN(C)C(=O)Cn1cc(-c2ccc(-c3nnc4ccccn34)cc2)cn1"
quantity_name = "Population Pyknosed Nuclei (%)"
measurement = "12%"


---

system: HEK-293T; experiment: Multiplex assay against HEK293T; format: toxicity, cell-based; settings: human, 12 h, 10 µM, compound concentration 10 uM, replicate 2
So basically, if Population Tubulin-Different-Phenotype (%) comes in under 60% it's Yes, and if it's 60% or more it's No.

[[record]]
molecule = "COc1ccc2[nH]c(I)c(CCNC(C)=O)c2c1"
assigned_label = "Yes"

[[record]]
molecule = "Cn1cc(C(=O)OCC2CCN(CCNS(C)(=O)=O)CC2)c2ccccc21"
assigned_label = "Yes"

[[record]]
molecule = "CN(C)C/C=C/C(=O)Nc1ccc(C(=O)N2CCCC(Nc3ncc(Cl)c(-c4c[nH]c5ccccc45)n3)C2)cc1 (stereo not drawn)"
assigned_label = "No"

[[record]]
molecule = "OCCCNc1cc(-c2ccnc(Nc3cccc(Cl)c3)n2)ccn1"
assigned_label = "No"

[[record]]
molecule = "CSc1nc(NC2CCCC2)c([N+](=O)[O-])c(NC2CCCC2)n1"
assigned_label = "Yes"

[[record]]
molecule = "O=C(NCCNCC(O)COc1ccc(O)cc1)N1CCOCC1.O=C(NCCNCC(O)COc1ccc(O)cc1)N1CCOCC1.O=C(O)/C=C/C(=O)O (stereo not drawn) [XAMOTEROL FUMARATE]"
assigned_label = "Yes"

[[record]]
molecule = "COc1ccc2c(c1OCc1ccccc1)C[C@@H](C(=O)O)N(C(=O)C(c1ccccc1)c1ccccc1)C2"
assigned_label = "Yes"

[[record]]
molecule = "C[C@@H]1CC(=O)Nc2cccc(-c3ccc4c(c3)c(-c3cnn(C)c3)nn4C)c2N1"
assigned_label = "Yes"

